Data credit: paper PMC10786891

Molecular target: T1, EsCas13d, nuclease-dead (Eubacterium siraeum, UniProt B0MS50, R295A;H300A;R849A;H854A)
T1 sequence: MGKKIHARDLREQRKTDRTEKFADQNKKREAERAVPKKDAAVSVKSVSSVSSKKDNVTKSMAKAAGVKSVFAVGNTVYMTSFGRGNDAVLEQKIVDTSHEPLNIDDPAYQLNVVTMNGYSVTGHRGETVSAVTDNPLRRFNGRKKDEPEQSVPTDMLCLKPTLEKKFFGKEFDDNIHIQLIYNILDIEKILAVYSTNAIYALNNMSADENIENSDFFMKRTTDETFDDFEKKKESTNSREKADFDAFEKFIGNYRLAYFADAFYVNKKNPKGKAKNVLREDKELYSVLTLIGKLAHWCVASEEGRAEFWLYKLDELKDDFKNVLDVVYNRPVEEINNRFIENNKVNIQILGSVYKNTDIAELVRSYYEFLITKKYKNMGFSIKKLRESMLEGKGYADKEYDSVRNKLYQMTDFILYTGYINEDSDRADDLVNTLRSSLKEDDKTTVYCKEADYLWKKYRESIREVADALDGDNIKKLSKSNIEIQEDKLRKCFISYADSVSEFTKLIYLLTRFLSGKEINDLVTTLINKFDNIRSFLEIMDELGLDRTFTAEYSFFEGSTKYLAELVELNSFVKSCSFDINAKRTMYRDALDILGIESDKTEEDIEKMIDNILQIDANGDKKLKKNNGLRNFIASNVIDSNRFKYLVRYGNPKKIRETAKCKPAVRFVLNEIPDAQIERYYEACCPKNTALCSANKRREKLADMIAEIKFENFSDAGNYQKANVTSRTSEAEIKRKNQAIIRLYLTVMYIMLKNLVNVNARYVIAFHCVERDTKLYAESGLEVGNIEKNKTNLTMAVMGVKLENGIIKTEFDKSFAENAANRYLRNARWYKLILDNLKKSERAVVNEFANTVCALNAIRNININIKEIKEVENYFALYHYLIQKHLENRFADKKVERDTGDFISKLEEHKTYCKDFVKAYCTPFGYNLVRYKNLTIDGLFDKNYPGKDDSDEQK
Experiment: crRNA (strand 1, pre-loaded); Mg2+; 40 mM Tris-HCl pH 7.5, 150 mM NaCl, 6 mM MgCl2, 1 mM DTT, 0.1% Tween-20, 0.2 mg/ml BSA; 25 C; 10 min per concentration, then washed
Settings: tags: His6-TwinStrep-SUMO cleaved; N-terminal SNAP kept (SNAP-Surface 488); label: 3' end held by stalled T7 RNA polymerase
Outcome measure: Kd (nM)

{"columns": ["Binder", "Val"],
 "data": [
  ["target 1 MT 5'PFS UCA 3'PFS CAC (mixed) RNA 1: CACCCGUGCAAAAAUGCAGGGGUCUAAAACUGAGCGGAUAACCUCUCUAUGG RNA 2: GGGAAUGGAUCCACAUCUACGAAUUCUCACCAUAGAGAGGUUAUCCGCUCACACAGAUCGGAAGAGCACACGU", 11],
  ["target 1 MT 5'PFS GUG 3'PFS GUU (mixed) RNA 1: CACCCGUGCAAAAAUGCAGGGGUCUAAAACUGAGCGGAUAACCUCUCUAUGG RNA 2: GGGAAUGGAUCCACAUCUACGAAUUCGUGCCAUAGAGAGGUUAUCCGCUCAGUUAGAUCGGAAGAGCACACGU", 17.9],
  ["target 2 MT 5'PFS AUA 3'PFS CCG (mixed) RNA 1: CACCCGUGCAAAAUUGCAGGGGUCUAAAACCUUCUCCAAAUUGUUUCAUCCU RNA 2: GGGAAUGGAUCCACAUCUACGAAUUCAUAAGGAUGAAACAAUUUGGAGAAGCCGAGAUCGGAAGAGCACACGU", 8.5],
  ["target 2 MT 5'PFS AGU 3'PFS AAG (mixed) RNA 1: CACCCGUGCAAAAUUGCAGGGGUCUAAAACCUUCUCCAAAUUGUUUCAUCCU RNA 2: GGGAAUGGAUCCACAUCUACGAAUUCAGUAGGAUGAAACAAUUUGGAGAAGAAGAGAUCGGAAGAGCACACGU", 11],
  ["target 1 C7A,G13A (mixed) RNA 1: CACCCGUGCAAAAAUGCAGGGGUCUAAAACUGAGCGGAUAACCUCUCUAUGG RNA 2: GGGAAUGGAUCCACAUCUACGAAUUCGUACCAUAGAGAAGUUAUACGCUCACCGAGAUCGGAAGAGCACACGU", 10.8],
  ["target 1 insU 3' of 1 (mixed) RNA 1: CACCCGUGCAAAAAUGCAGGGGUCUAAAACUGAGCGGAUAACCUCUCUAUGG RNA 2: GGGAAUGGAUCCACAUCUACGAAUUCGUACCAUAGAGAGGUUAUCCGCUCAUCCGAGAUCGGAAGAGCACACGU", 9.6],
  ["target 2 MT 5'PFS UAC 3'PFS CUA (mixed) RNA 1: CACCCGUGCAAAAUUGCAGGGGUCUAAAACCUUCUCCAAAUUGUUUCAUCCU RNA 2: GGGAAUGGAUCCACAUCUACGAAUUCUACAGGAUGAAACAAUUUGGAGAAGCUAAGAUCGGAAGAGCACACGU", 6.8],
  ["target 3 insA 3' of 8,insG 3' of 2 (mixed) RNA 1: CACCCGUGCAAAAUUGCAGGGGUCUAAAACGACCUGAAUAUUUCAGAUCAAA RNA 2: GGGAAUGGAUCCACAUCUACGAAUUCGUUUUUGAUCUGAAAUAUAUCAGGUGCUGCAGAUCGGAAGAGCACACGU", 36.5],
  ["target 2 MT 5'PFS GUA 3'PFS CAC (mixed) RNA 1: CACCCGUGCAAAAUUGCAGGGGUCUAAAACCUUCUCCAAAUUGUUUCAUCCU RNA 2: GGGAAUGGAUCCACAUCUACGAAUUCGUAAGGAUGAAACAAUUUGGAGAAGCACAGAUCGGAAGAGCACACGU", 9.6],
  ["target 3 insU 3' of 22,insC 3' of 9 (mixed) RNA 1: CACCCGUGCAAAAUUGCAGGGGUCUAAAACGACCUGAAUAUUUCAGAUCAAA RNA 2: GGGAAUGGAUCCACAUCUACGAAUUCGUUUUUUGAUCUGAAAUACUUCAGGUCUGCAGAUCGGAAGAGCACACGU", 82.5],
  ["target 1 U8G,U11C (mixed) RNA 1: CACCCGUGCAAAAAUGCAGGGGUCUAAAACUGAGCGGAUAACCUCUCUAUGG RNA 2: GGGAAUGGAUCCACAUCUACGAAUUCGUACCAUAGAGAGGCUAGCCGCUCACCGAGAUCGGAAGAGCACACGU", 29.5],
  ["target 1 insC 3' of 16,insU 3' of 7 (mixed) RNA 1: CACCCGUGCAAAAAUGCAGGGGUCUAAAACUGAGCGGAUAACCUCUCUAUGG RNA 2: GGGAAUGGAUCCACAUCUACGAAUUCGUACCAUAGACGAGGUUAUCUCGCUCACCGAGAUCGGAAGAGCACACGU", 75],
  ["target 1 insC 3' of 11,insA 3' of 5 (mixed) RNA 1: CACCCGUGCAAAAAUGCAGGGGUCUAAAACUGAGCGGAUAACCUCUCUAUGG RNA 2: GGGAAUGGAUCCACAUCUACGAAUUCGUACCAUAGAGAGGUCUAUCCGACUCACCGAGAUCGGAAGAGCACACGU", 7.9],
  ["target 3 C1G,C6G (mixed) RNA 1: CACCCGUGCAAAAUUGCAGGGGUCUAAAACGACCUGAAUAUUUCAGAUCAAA RNA 2: GGGAAUGGAUCCACAUCUACGAAUUCGUUUUUGAUCUGAAAUAUUGAGGUGUGCAGAUCGGAAGAGCACACGU", 18.7],
  ["target 1 C7G,A16G (mixed) RNA 1: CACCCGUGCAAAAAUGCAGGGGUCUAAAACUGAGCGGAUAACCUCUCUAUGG RNA 2: GGGAAUGGAUCCACAUCUACGAAUUCGUACCAUAGGGAGGUUAUGCGCUCACCGAGAUCGGAAGAGCACACGU", 34]
]}
